src = ChEMBL document CHEMBL1201862

- Test system: RXF 393
- PROTOCOL DESCRIPTION: NCI tumour cell line growth inhibition, 48 h
Activity calls are given as the source filed them. Cut-off read from the data, not from the text of the source: active = GI50 up to about 1.1 µM and inactive = higher.
Tick one outcome: 1 (active), -1 (inactive)

Example results:
COMPOUND	CLASS ASSIGNMENT
Cc1n[n+]([O-])c(C)cc1[N+](=O)[O-]	-1
COc1ccc(NC(=O)/C(=C/c2ccc(N(CCC#N)CCC#N)cc2)NC(=O)c2cc([N+](=O)[O-])ccc2Cl)cc1	-1
O=C(Cc1ccc(Cl)c(Cl)c1)NCC1(N2CCCCC2)CCCCC1	-1
C[C@]1(O)CC(=O)c2c(c(-c3ccc4cc5c(c(O)c4c3O)C(=O)C[C@@](C)(O)C5)c3cccc(O)c3c2O)C1	-1

Query block: // outcome(item) with item = O=C(Nc1cc2cc([N+](=O)[O-])ccc2oc1=O)c1cccs1
Result block: -1

Query block: // outcome(item) with item = COc1ccc(OC)c2c3c([nH]c12)C(=O)Nc1nc(N)nc(N)c1C3
Result block: -1

Query block: // outcome(item) with item = C[C@@H](NC(C#N)c1ccco1)c1ccccc1 (stereo not given in full)
Result block: -1

Query block: // outcome(item) with item = C=C(C)COC(=O)COCC(=O)OCC(=C)C
Result block: -1

Query block: // outcome(item) with item = c1ccc(CCCNc2nnnc3ccccc23)cc1
Result block: -1

Query block: // outcome(item) with item = CN(C)CCNc1ccc(C(=O)NCCCN(C)CCCNC(=O)c2ccc(NCCN(C)C)c3c(=O)c4ccccc4[nH]c23)c2[nH]c3ccccc3c(=O)c12
Result block: 1
